# SYSTEM: HA of ca A/Hong Kong/213/03 (H5N1) virus (influenza A virus)
# ASSAY COMMENT: cell-based or functional assay
As shown below, each of these binders has a reported Neutralization IC50, H5-HK03 value.
Give the value, in units of µg/mL, as a plain number.

INSERT INTO measurements (binder, test_readout, endpoint_value) VALUES
  ('Antibody 12 (antibody, V domains shown) VH: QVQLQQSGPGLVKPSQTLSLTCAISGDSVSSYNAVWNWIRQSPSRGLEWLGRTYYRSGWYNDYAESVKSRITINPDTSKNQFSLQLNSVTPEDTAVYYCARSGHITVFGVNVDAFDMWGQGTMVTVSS VL: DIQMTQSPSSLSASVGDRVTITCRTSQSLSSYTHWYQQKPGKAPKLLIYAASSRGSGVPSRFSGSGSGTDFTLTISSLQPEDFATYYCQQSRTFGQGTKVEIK', 'Neutralization IC50, H5-HK03', 0.17),
  ('Antibody 14 (antibody, V domains shown) VH: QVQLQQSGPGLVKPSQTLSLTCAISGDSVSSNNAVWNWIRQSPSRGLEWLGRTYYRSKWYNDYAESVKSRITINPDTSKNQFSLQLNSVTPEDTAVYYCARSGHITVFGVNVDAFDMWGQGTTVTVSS VL: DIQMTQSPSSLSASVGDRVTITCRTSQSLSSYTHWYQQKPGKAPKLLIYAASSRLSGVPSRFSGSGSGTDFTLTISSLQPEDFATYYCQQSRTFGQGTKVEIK', 'Neutralization IC50, H5-HK03', 0.21),
  ('Antibody 15 (antibody, V domains shown) VH: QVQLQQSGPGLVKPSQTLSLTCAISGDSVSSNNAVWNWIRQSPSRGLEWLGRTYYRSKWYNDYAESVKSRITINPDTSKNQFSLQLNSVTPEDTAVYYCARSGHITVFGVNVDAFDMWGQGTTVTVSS VL: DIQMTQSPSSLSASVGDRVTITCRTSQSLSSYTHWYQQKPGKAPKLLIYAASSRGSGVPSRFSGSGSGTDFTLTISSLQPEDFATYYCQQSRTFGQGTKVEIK', 'Neutralization IC50, H5-HK03', 0.05);

Okay, now this binder:
Query: Recorded Neutralization IC50, H5-HK03 of Antibody 13 (antibody, V domains shown) VH: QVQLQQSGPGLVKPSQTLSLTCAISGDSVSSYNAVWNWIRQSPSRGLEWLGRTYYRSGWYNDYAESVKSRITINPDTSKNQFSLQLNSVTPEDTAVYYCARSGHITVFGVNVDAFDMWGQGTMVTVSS VL: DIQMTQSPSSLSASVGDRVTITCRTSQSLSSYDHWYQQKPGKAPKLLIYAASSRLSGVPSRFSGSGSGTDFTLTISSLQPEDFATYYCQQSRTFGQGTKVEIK , please.
Reply: 0.17
